Run description: Metabolic stability in human hepatocytes assessed as intrinsic clearance
Format: ADME, cell-based, Hepatocyte

Compound	CLH
Fc1ccc([C@H]2c3ccccc3CCN2C2=NC[C@@]3(CCNC3)O2)cc1	< 14.7 µL/min/mg
Fc1ccc([C@H]2c3ccccc3CCN2C2=NC[C@@H](C3(F)CNC3)O2)cc1	< 14.7 µL/min/mg
Fc1ccc([C@H]2c3ccccc3CCN2C2=NC[C@@H](C3CN4CCC3CC4)O2)cc1 (stereo not given in full)	47.79 µL/min/mg
Fc1ccc([C@H]2c3ccccc3CCN2C2=N[C@H](C3(F)CNC3)CO2)cc1	< 14.7 µL/min/mg
OCCN1CC[C@@]2(CN=C(N3CCc4ccccc4[C@@H]3c3ccc(F)cc3)O2)C1	< 14.7 µL/min/mg

----------
As shown below, each of these compounds has a reported fraction unbound value.
Run description: Protein binding in mouse brain assessed as unbound fraction
Type: ADME, tissue-based
Test readout: fraction unbound

Compound	Test result
Fc1ccc([C@H]2c3ccccc3CCN2C2=NC[C@@H](C3CN4CCC3CC4)O2)cc1 (stereo partly specified)	0.02
Fc1ccc([C@H]2c3ccccc3CCN2C2=NC[C@@H]3CNCC[C@@H]3O2)cc1	0.009
Fc1ccc([C@H]2c3ccccc3CCN2C2=NC[C@@]3(CCNC3)O2)cc1	0.041
Fc1ccc([C@H]2c3ccccc3CCN2C2=N[C@H](C3(F)CNC3)CO2)cc1	0.009
Fc1ccc([C@H]2c3ccccc3CCN2C2=NC[C@@H](C3(F)CNC3)O2)cc1	0.01
OCCN1CC[C@@]2(CN=C(N3CCc4ccccc4[C@@H]3c3ccc(F)cc3)O2)C1	0.042

----------
Run description: Induction of progranulin secretion in mouse BV-2 cells
Assay type: functional, cell-based
# EC50 annotations

Compound	EC50 / nM
CN(C)[C@H]1CC[C@@]2(CN=C(N3CCc4ccccc4[C@@H]3c3ccc(F)cc3)O2)C1	237
Fc1ccc([C@H]2c3ccccc3CCN2C2=N[C@@]3(CCCNC3)CO2)cc1	38
Fc1ccc([C@H]2c3ccccc3CCN2C2=NCC3(CCNCC3)O2)cc1	59
OCCN1CC[C@@]2(CN=C(N3CCc4ccccc4[C@@H]3c3ccc(F)cc3)O2)C1	318
Fc1ccc([C@H]2c3ccccc3CCN2C2=NC[C@@H]3CNCC[C@H]3O2)cc1	35
Fc1ccc([C@H]2c3ccccc3CCN2C2=NC[C@@H](C3(F)CNC3)O2)cc1	132
N[C@@H]1CC[C@]2(CN=C(N3CCc4ccccc4[C@@H]3c3ccc(F)cc3)O2)C1	236
Fc1ccc([C@H]2c3ccccc3CCN2C2=N[C@@H](C3CN4CCC3CC4)CO2)cc1 (some centres undefined)	231
Fc1ccc([C@H]2c3ccccc3CCN2C2=NC[C@@H]3NCC[C@@H]3O2)cc1	455

----------
// reported Papp A→B per item
Run description: Apparent permeability across apical to basolateral side in MDCK-MDR1 cells
Format: ADME, cell-based, Canis lupus familiaris
Cond: dog

Compound	Unit abbrev	Papp A→B
Fc1ccc([C@H]2c3ccccc3CCN2C2=NC[C@@H](C3CN4CCC3CC4)O2)cc1 (stereo partly specified)	×10⁻⁶ cm/s	3.07
Fc1ccc([C@H]2c3ccccc3CCN2C2=NC[C@@H]3CNCC[C@@H]3O2)cc1	×10⁻⁶ cm/s	1.4
OCCN1CC[C@@]2(CN=C(N3CCc4ccccc4[C@@H]3c3ccc(F)cc3)O2)C1	×10⁻⁶ cm/s	2.2
Fc1ccc([C@H]2c3ccccc3CCN2C2=N[C@H](C3(F)CNC3)CO2)cc1	×10⁻⁶ cm/s	0.53
Fc1ccc([C@H]2c3ccccc3CCN2C2=NC[C@@]3(CCNC3)O2)cc1	×10⁻⁶ cm/s	3
Fc1ccc([C@H]2c3ccccc3CCN2C2=NC[C@@H](C3(F)CNC3)O2)cc1	×10⁻⁶ cm/s	0.87

----------
The following compounds are listed with their measured log10 EC50 values.
Run description: Induction of progranulin secretion in mouse BV-2 cells
Format: functional, cell-based
Test readout: log10 EC50 (log10 of the value in nM)

Compound	log10 EC50
CN(C)[C@H]1C[C@]2(CN=C(N3CCc4ccccc4[C@@H]3c3ccc(F)cc3)O2)C1	3.55
N[C@H]1C[C@@]2(CN=C(N3CCc4ccccc4[C@@H]3c3ccc(F)cc3)O2)C1	2.72
CN1CC[C@@]2(CN=C(N3CCc4ccccc4[C@@H]3c3ccc(F)cc3)O2)C1	2.25
Fc1ccc([C@H]2c3ccccc3CCN2C2=N[C@H](C3CN4CCC3CC4)CO2)cc1 (stereo not given in full)	2.10
NC[C@H]1C[C@]2(CN=C(N3CCc4ccccc4[C@@H]3c3ccc(F)cc3)O2)C1	2.31
Fc1ccc([C@H]2c3ccccc3CCN2C2=N[C@]3(CCCNC3)CO2)cc1	1.93
Fc1ccc([C@H]2c3ccccc3CCN2C2=NC[C@@H]([C@H]3CCNC3)O2)cc1	2.39
Fc1ccc([C@H]2c3ccccc3CCN2C2=N[C@H]3CNC[C@H]3CO2)cc1	2.44
Fc1ccc([C@H]2c3ccccc3CCN2C2=NC[C@@H](C3CN4CCC3CC4)O2)cc1 (stereo not given in full)	2.34
CN(C)[C@H]1C[C@@]2(CN=C(N3CCc4ccccc4[C@@H]3c3ccc(F)cc3)O2)C1	2.32
Fc1ccc([C@H]2c3ccccc3CCN2C2=N[C@@H]3CNC[C@@H]3O2)cc1	2.83
N[C@H]1CC[C@]2(COC(N3CCc4ccccc4[C@@H]3c3ccc(F)cc3)=N2)C1	2.20
Fc1ccc([C@H]2c3ccccc3CCN2C2=N[C@@H](C3(F)CNC3)CO2)cc1	2.08
CN1CCCC2(COC(N3CCc4ccccc4[C@@H]3c3ccc(F)cc3)=N2)C1 (stereo not given in full)	2.90
CN1CC[C@]2(CN=C(N3CCc4ccccc4[C@@H]3c3ccc(F)cc3)O2)C1	1.84
CN(C)[C@H]1CC[C@]2(CN=C(N3CCc4ccccc4[C@@H]3c3ccc(F)cc3)O2)C1	2.14
N[C@H]1CC[C@@]2(CN=C(N3CCc4ccccc4[C@@H]3c3ccc(F)cc3)O2)C1	2.10
Fc1ccc([C@H]2c3ccccc3CCN2C2=NC[C@]3(CCCNC3)O2)cc1	1.81
CN1CCC2(CC1)COC(N1CCc3ccccc3[C@@H]1c1ccc(F)cc1)=N2	3.85
N[C@H]1CC[C@@]2(COC(N3CCc4ccccc4[C@@H]3c3ccc(F)cc3)=N2)C1	2.31
OCCN1CC[C@H]2OC(N3CCc4ccccc4[C@@H]3c3ccc(F)cc3)=NC[C@H]2C1	2.36
Fc1ccc([C@H]2c3ccccc3CCN2C2=NC[C@H]3NCC[C@H]3O2)cc1	2.63
Fc1ccc([C@H]2c3ccccc3CCN2C2=NC[C@@H]3CNCC[C@@H]3O2)cc1	1.76
NC[C@H]1C[C@@]2(CN=C(N3CCc4ccccc4[C@@H]3c3ccc(F)cc3)O2)C1	3.00
O=C(O[C@H]1CN2CCC1CC2)N1CCc2ccccc2[C@@H]1c1ccc(F)cc1	2.41
OCCN1CC[C@@H]2OC(N3CCc4ccccc4[C@@H]3c3ccc(F)cc3)=NC[C@@H]2C1	1.57
Fc1ccc([C@H]2c3ccccc3CCN2C2=NC[C@H](C3(F)CNC3)O2)cc1	2.28
O=C(O[C@H]1CN2CCC1CC2)N1CCc2ccccc2[C@@H]1c1ccccc1	3.11
Fc1ccc([C@H]2c3ccccc3CCN2C2=NC3(CCNCC3)CO2)cc1	2.20
Fc1ccc([C@H]2c3ccccc3CCN2C2=NC[C@H]3CNC[C@H]3O2)cc1	2.05

Cited source for all entries: ChEMBL document CHEMBL5236587
